Hey, just so you know, these numbers are from patent US8841453B2.

target under test: AChE from the erythrocytes (Homo sapiens (Human))
Sequence (P22303 32-574 with tags or gaps limits assumed): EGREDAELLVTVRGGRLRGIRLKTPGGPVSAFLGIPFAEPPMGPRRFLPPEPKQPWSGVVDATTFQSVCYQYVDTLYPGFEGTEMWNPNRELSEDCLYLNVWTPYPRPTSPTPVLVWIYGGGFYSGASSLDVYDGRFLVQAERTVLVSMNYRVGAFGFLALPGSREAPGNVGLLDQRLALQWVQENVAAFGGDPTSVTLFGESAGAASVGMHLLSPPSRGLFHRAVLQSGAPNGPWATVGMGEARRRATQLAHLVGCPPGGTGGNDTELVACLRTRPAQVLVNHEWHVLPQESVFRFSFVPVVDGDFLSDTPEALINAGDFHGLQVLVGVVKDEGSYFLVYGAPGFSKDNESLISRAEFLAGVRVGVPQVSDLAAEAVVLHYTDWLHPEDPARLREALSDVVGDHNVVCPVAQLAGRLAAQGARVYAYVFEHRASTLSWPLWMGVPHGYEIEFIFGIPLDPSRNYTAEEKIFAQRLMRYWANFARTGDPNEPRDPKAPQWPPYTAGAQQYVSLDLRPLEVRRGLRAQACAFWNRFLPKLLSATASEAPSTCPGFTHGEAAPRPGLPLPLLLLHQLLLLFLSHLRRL
pIC50: −log10 of the molar value.
Assign classes using reported pIC50 values and the ranges lower range: < 7; middle range: ≥ 7 and < 8; upper range: ≥ 8, please.

Previously resolved entries follow.
- CC(=O)NCCc1c[nH]c2ccc(OC(=O)NCCCCCCCCNc3c4c(nc5ccccc35)CCCC4)cc12: upper range
- CC(=O)NCCc1c[nH]c2ccc(OC(=O)NCCCCCCCCCCNc3c4c(nc5ccc(Cl)cc35)CCCC4)cc12: upper range
- CC(=O)NCCc1c[nH]c2ccc(OC(=O)NCCCCCCNc3c4c(nc5ccccc35)CCCC4)cc12: lower range

Note: place this compound into its band. Item: CC(=O)NCCc1c[nH]c2ccc(OC(=O)NCCCCCCCCCCNc3c4c(nc5ccccc35)CCCC4)cc12
upper range

Lookup CC(=O)NCCc1c[nH]c2ccc(OC(=O)NCCCCNc3c4c(nc5ccccc35)CCCC4)cc12
lower range

Lookup CC(=O)NCCc1c[nH]c2ccc(OC(=O)NCCCCCNc3c4c(nc5ccccc35)CCCC4)cc12
lower range

Lookup CC(=O)NCCc1c[nH]c2ccc(OC(=O)NCCCCCCCCCCCCNc3c4c(nc5ccccc35)CCCC4)cc12
upper range

Lookup CC(=O)NCCc1c[nH]c2ccc(OC(=O)NCCCNc3c4c(nc5ccccc35)CCCC4)cc12
lower range

Lookup CC(=O)NCCc1c[nH]c2ccc(OC(=O)NCCCCCCCNc3c4c(nc5ccccc35)CCCC4)cc12
middle range

Lookup CC(=O)O[C@@]12CCN(C(C)=O)[C@@H]1N(C(C)=O)c1ccc(OC(=O)NCCCCCCNc3c4c(nc5ccccc35)CCCC4)cc12 (stereo in doubt)
middle range
